- System: HT-22
- measurement_description: Neuroprotective activity against glutamate-induced cell death in mouse HT22 cells assessed as increase in cell viability at 0.15 to 38.46 uM incubated for 12 hrs by calcein-AM dye and propidium iodide staining based analysis
- Format: functional
- test_context: dose microM 0.15-38.46, time 12.0 hrs
Activity calls are given as the source filed them. The calls are words filed in the database; no cut-off is given here.
Could you please pick one outcome from this set? active, inactive

>  <smiles_code>
COc1ccc2c(c1)C(=O)/C(=C/c1cc(OC)c(OC)cc1Br)CC2

>  <group_label>
active

$$$$
>  <smiles_code>
COc1ccc2c(c1)C(=O)/C(=C/c1ccc(O)cc1)CC2

>  <group_label>
inactive

$$$$
>  <smiles_code>
COc1ccc2c(c1)C(=O)/C(=C/c1cc(OC)c(Br)c(OC)c1)CC2

>  <group_label>
active

$$$$

Ask | Write down the call the test reported for this molecule. Item: COc1cc(OC)c(/C=C2\CCc3ccc(OC)cc3C2=O)c(OC)c1
Reply | active
